Tested on: NS5A chimeric genotype 2a JFH-1 replicon with genotype 2b MD2b-1 strain NS5A gene (M31 present)
Assay: Replicon assay, genotype 2b NS5A chimera
Type: cell-based, HCV
Details: Hepatitis C virus, read-out: 2b (s) (nM), genotype 2b MD2b-1 NS5A chimeric replicon (M31), stably replicating replicon cells (s)
quantityKind: EC50 (nM)
Could you give me the number in nM? Just the number is fine.

Prompt: Using known records, supply EC50 for `CC[C@H]1CC[C@@H](c2ncc(-c3ccc4c(c3)COc3cc5c(ccc6nc([C@@H]7C[C@H](C)CN7C(=O)[C@@H](NC(=O)OC)C(C)C)[nH]c65)cc3-4)[nH]2)N1C(=O)[C@@H](NC(=O)OC)C1CCOCC1`
Response: 0.122

Prompt: Give EC50 for `COC(=O)N[C@H](C(=O)N1[C@@H](C)CC[C@H]1c1ncc(-c2ccc3c(c2)COc2cc4c(ccc5nc([C@@H]6C[C@H](C)CN6C(=O)[C@@H](NC(=O)OC)C6CCOCC6)[nH]c54)cc2-3)[nH]1)C(C)C`
Response: 0.048

Prompt: Report EC50 for `CC[C@H](C)[C@H](NC(=O)OC)C(=O)N1[C@@H](C)CC[C@H]1c1nc2ccc3cc4c(cc3c2[nH]1)OCc1cc(-c2cnc([C@@H]3C[C@H](COC)CN3C(=O)[C@@H](NC(=O)OC)C(C)C)[nH]2)ccc1-4`
Response: 0.784

Prompt: Determine from records and report EC50 for `CC[C@H]1CC[C@@H](c2nc3ccc4cc5c(cc4c3[nH]2)OCc2cc(-c3cnc([C@@H]4CC[C@H](C)N4C(=O)[C@@H](NC(=O)OC)C4CCOCC4)[nH]3)ccc2-5)N1C(=O)[C@@H](NC(=O)OC)C(C)C`
Response: 0.081
